Sourced from patent US20230110188A1

The entries below are paired with their reported OD 450 nm.
# System under test: T1, human monomeric MuSK FLAG streptavidin (in house produced, batch 27-6-2019) (human, UniProt O15146 24-495)
# T1 construct: also called full length MuSK; not shown: FLAG and streptavidin tags
# T1 sequence: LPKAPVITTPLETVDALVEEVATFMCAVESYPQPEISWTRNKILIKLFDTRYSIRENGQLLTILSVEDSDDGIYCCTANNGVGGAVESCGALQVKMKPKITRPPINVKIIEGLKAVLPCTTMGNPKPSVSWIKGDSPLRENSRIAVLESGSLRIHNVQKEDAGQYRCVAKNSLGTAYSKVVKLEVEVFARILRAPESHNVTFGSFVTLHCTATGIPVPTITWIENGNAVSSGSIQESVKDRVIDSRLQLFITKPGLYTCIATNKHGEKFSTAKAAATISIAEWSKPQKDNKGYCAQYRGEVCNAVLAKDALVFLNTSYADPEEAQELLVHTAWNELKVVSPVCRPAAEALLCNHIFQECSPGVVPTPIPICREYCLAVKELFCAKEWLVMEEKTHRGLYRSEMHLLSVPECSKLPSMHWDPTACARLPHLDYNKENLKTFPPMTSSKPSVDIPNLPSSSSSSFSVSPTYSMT
# Protocol summary: epitope binning ELISA (coated anti-MuSK Fab, MuSK, IgG, anti-Fc HRP); competitor: 3D10a
# output: bare number, implied unit OD

Which measured OD 450 nm value corresponds to 3F6c (antibody, human IgG1, kappa, L234A L235A, V domains shown) VH: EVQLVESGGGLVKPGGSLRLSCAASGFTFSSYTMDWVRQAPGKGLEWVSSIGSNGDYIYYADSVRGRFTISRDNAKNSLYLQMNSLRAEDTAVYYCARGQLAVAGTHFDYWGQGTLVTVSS VL: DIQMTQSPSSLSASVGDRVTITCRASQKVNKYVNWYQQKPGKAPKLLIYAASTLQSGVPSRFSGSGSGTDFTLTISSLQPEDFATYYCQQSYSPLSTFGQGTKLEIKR ?
0.057

Give the measured OD 450 nm of 3D9b (antibody, human IgG1, kappa, L234A L235A, V domains shown) VH: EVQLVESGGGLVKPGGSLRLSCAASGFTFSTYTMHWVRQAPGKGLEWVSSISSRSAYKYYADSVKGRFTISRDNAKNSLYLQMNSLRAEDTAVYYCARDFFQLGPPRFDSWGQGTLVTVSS VL: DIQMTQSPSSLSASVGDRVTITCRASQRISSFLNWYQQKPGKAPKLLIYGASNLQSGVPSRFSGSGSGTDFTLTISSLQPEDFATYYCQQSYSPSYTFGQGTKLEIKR .
0.06
